Origin of the recorded values: paper PMC7318222

Assay: Miscibility with hexane
Format: physicochemical
Settings: this work
experimental-readout: Hexane misc.

Known results for molecules:
CN1CCCC1=O [NMP, N‐methyl‐2‐pyrrolidone, reference compound]
no^[a]
CCCCN(CC)C(=O)CCC(=O)N(CC)CCCC [EBSA, N,N′‐diethyl‐N,N′‐dibutylsuccindiamide]
yes^[a]
CCCCN(CCCC)C(=O)CCC(=O)N(CCCC)CCCC [TBSA, N,N,N′,N′‐tetrabutylsuccindiamide]
yes^[a]
CCCCN(C)C(=O)CCC(=O)N(C)CCCC [MBSA, N,N′‐dimethyl‐N,N′‐dibutylsuccindiamide]
yes^[a]

Turning now to a further record.
Q: // query Hexane misc. value for entry CN(C)C=O [DMF, N,N‐dimethylformamide]
Ans: no^[a]
